test system: HCC1937; experiment: Antiproliferative activity against exponentially growing adherent human HCC1937 cells assessed as inhibition of cell proliferation after 48 hrs by luminescence detection based ATPlite assay; conditions: HCC1937, 48 h
pIC50: −log10 of the molar value.

MOLECULE	QUALIFIER	pIC50
COc1cc(OC)c2c(c1Cl)O[C@@]1(C=C([S+]([O-])c3ccccc3)C(=O)C[C@H]1C)C2=O (stereo partly drawn)	=	6.40
CC(=O)O[C@H]1C(=O)[C@@]2(C)[C@H]([C@H](OC(=O)c3ccccc3)[C@]3(O)C[C@H](OC(=O)[C@H](O)[C@@H](NC(=O)c4ccccc4)c4ccccc4)C(C)=C1C3(C)C)[C@]1(OC(C)=O)CO[C@@H]1C[C@@H]2O	<	5.00
COc1cc(OC)c2c(c1Cl)O[C@]1(C2=O)C(S(=O)(=O)Cc2ccccc2)=CC(=O)C[C@H]1C	=	5.85

* * *

Overview of reported IC50 across a group of compounds:
test system: HCC1937; assay: Antiproliferative activity against exponentially growing adherent human HCC1937 cells assessed as inhibition of cell proliferation after 48 hrs by luminescence detection based ATPlite assay; conditions: HCC1937, 48 h
ASSAY READOUT: IC50

QUERY SMILES	ASSAY READOUT	VAL
COc1cc(OC)c2c(c1Cl)O[C@]1(C2=O)C(SCc2ccccc2)=CC(=O)C[C@H]1C	IC50	> 10 µM
COc1cc(OC)c2c(c1Cl)O[C@]1(C2=O)C(S(=O)(=O)CCN(C)C)=CC(=O)C[C@H]1C	IC50	5.9 µM
CCC1=C[C@@H]2CN(C1)Cc1c([nH]c3ccccc13)[C@@](C(=O)OC)(c1cc3c(cc1OC)N(C)[C@H]1[C@@](O)(C(=O)OC)[C@H](OC(C)=O)[C@]4(CC)C=CCN5CC[C@]31[C@@H]54)C2	IC50	> 10 µM
COC1=CC(=O)C[C@@H](C)[C@]12Oc1c(Cl)c(OC)cc(OC)c1C2=O	IC50	> 10 µM
COc1cc(OC)c2c(c1Cl)O[C@]1(C2=O)C(SCCN(C)C)=CC(=O)C[C@H]1C	IC50	> 10 µM
COc1cc(OC)c2c(c1Cl)O[C@@]1(C=C(S(=O)(=O)Cc3ccccc3)C(=O)C[C@H]1C)C2=O	IC50	0.9 µM
COc1cc(OC)c2c(c1Cl)O[C@]1(C2=O)C(S(C)(=O)=O)=CC(=O)C[C@H]1C	IC50	> 10 µM
COc1cc(OC)c2c(c1Cl)O[C@]1(C2=O)C(OCc2ccccc2)=CC(=O)C[C@H]1C	IC50	> 10 µM
COc1cc(OC)c2c(c1Cl)O[C@@]1(C=C(S(=O)(=O)c3ccccc3)C(=O)C[C@H]1C)C2=O	IC50	0.7 µM
C/C(=C\c1csc(C)n1)[C@@H]1C[C@@H]2O[C@]2(C)CCC[C@H](C)[C@H](O)[C@@H](C)C(=O)C(C)(C)[C@@H](O)CC(=O)O1	IC50	> 10 µM
COc1cc(OC)c2c(c1Cl)O[C@]1(C2=O)C(S(=O)(=O)c2ccccc2)=CC(=O)C[C@H]1C	IC50	1.6 µM
